Each item that follows carries a reported Activity.
Test system: HT-29
Test: Inhibition of glucuronosyltransferase activity in the human colon cancer cell line HT-29 at 5 uM concentration
Type: cell-based
Parameters: scale not given: the % may be the effect or the level left
State just the number; it will be interpreted in %.

Below: 5 molecules and their reported Activity.
CC(CCCO)[C@H]1CC[C@H]2[C@@H]3CC[C@@H]4C[C@H](O)CC[C@]4(C)[C@H]3CC[C@]12C (stereo partly drawn)    72.8
C[C@H](CCC(=O)O)[C@H]1CC[C@H]2[C@@H]3CC(O)[C@@H]4C[C@H](O)CC[C@]4(C)[C@H]3CC[C@]12C (single isomer, unassigned)    75.2
CC(CCC(=O)O)C1CCC2C3C=CC4C[C@H](O)CCC4(C)C3CCC12C (stereo partly drawn)    41.4
CC(CC(O)C(=O)O)[C@H]1CC[C@H]2[C@@H]3CC[C@@H]4C[C@H](O)CC[C@]4(C)[C@H]3CC[C@]12C (mixture of isomers)    40
CC(CCC(=O)O)[C@H]1CC[C@H]2[C@@H]3C(=O)C[C@@H]4C[C@H](O)CC[C@]4(C)[C@H]3CC(=O)[C@]12C (stereo partly drawn)    100

Task: What Activity appears in the records for this molecule with HT-29? CC(CCC(=O)O)[C@H]1CC[C@H]2[C@@H]3[C@H](O)C[C@@H]4C[C@H](O)CC[C@]4(C)[C@H]3C[C@@H](O)[C@]12C (stereo partly drawn)
Result: 98.3

Task: Another: C[C@H](CCC(=O)O)[C@H]1CC[C@H]2[C@@H]3CC[C@@H]4CCCC[C@]4(C)[C@H]3CC[C@]12C
Result: 92

Task: How about C[C@H](CCC(=O)O)[C@H]1CC[C@H]2[C@@H]3CC[C@@H]4C[C@H](O)CCC4(C)[C@H]3CC(O)[C@]12C (single isomer, unassigned) ?
Result: 48

Task: Try this molecule too: C[C@H](CCC(=O)O)[C@H]1CC[C@H]2[C@@H]3CC[C@@H]4C[C@H](O)CC[C@]4(C)[C@H]3CC[C@]12C
Result: 25.3

Task: Input CC(CC(O)C(=O)O)[C@H]1CC[C@H]2[C@@H]3CC[C@@H]4C[C@H](O)CC[C@]4(C)[C@H]3CC[C@]12C (single isomer, unassigned)
Result: 55.4

Task: What do we get for CC(CCC(=O)O)[C@H]1CC[C@H]2[C@@H]3CC[C@@H]4CC(=O)CC[C@]4(C)[C@H]3CC[C@]12C (stereo partly drawn) ?
Result: 46

Task: Entry C[C@H](CCC(=O)O)[C@H]1CC[C@H]2[C@@H]3[C@H](O)C[C@@H]4C[C@H](O)CC[C@]4(C)[C@H]3CC[C@]12C please
Result: 38.4

Task: Also check C[C@H](CCC(=O)O)[C@H]1CC[C@H]2[C@@H]3[C@@H](O)C[C@@H]4C[C@H](O)CC[C@]4(C)[C@H]3CC[C@]12C
Result: 73.3
